Cited source: ChEMBL document CHEMBL4004877

- Assay Info: Cytotoxicity against LPS-stimulated mouse RAW264.7 cells assessed as cell viability at 5 ug/ml after 24 hrs by MTT assay relative to control
- Format: cell-based
- Details: LPS-stimulated RAW264.7 cells, read-out: Activity

Smiles Repr	viability at 24 h, 5 ug/ml, %
Oc1ccc(CCCc2ccc3c(c2)OCO3)cc1	94.5
COc1ccc(CCCc2ccc(OC)c(OC)c2OC)c(O)c1	84.5
O=C(/C=C/c1ccc2c(c1)OCO2)c1ccc(O)cc1	88.5
COc1ccc(C(=O)CCc2ccc3c(c2)OCO3)c(OC)c1	83.2
COc1ccc(CCC(=O)c2cccc(O)c2)c(OC)c1	88.8
COc1ccc(CCC(=O)c2ccc(OC)c(OC)c2)cc1OC	96.2
COc1ccc(CCCc2ccc3c(c2)OCO3)c(O)c1	71.4
COc1ccc(/C=C/C(=O)c2cccc(O)c2)c(OC)c1	63
COc1ccc(CCCc2cccc(O)c2)cc1	94.1
COc1ccc(C(=O)/C=C/c2ccc(OC)cc2OC)c(O)c1	87.3
COc1ccc(C(=O)CCc2cc(OC)ccc2OC)c(O)c1	91.1
COc1ccc(CCC(=O)c2cccc(O)c2)cc1	94.5
COc1ccc(CCCc2ccc(OC)cc2O)cc1	94.6
COc1ccc(C(=O)CCc2ccc(OC)cc2OC)c(O)c1	87.4
COc1ccc(CCCc2ccc(O)c(OC)c2)cc1	96.4
COc1ccc(CCCc2ccc(OC)cc2OC)c(O)c1	91.5
COc1ccc(CCC(=O)c2cccc(O)c2)cc1OC	98
COc1ccc(C(=O)/C=C/c2ccc3c(c2)OCO3)c(O)c1	75.2
COc1ccc(CCCc2cccc(O)c2)c(OC)c1	95.9
O=C(CCc1ccc2c(c1)OCO2)c1ccc(O)cc1	87.3
COc1ccc(CCC(=O)c2ccc(OC)c(OC)c2)cc1	95.1
COc1cc(C(=O)/C=C/c2cccc(OC)c2OC)ccc1O	67.8
COc1ccc(/C=C/C(=O)c2ccc(OC)c(OC)c2)cc1O	73
COc1ccc(CCC(=O)c2ccc(OC)c(OC)c2)cc1O	91.8
COc1cc(CCCc2ccc3c(c2)OCO3)ccc1O	93.3
COc1ccc(/C=C/C(=O)c2ccc(OC)c(OC)c2)cc1OC	81.3

----------
- Assay Info: Cytotoxicity against LPS-stimulated mouse RAW264.7 cells assessed as cell viability at 1.25 ug/ml after 24 hrs by MTT assay relative to control
- Format: cell-based
- Details: LPS-stimulated RAW264.7 cells, read-out: Activity
Measured viability at 24 h, 1.25 ug/ml, listed per entry.
Value Type: viability at 24 h, 1.25 ug/ml (%)

Smiles Repr	Quantity Unit	Obs Value
COc1ccc(CCCc2ccc3c(c2)OCO3)c(O)c1	%	97.5
COc1ccc(/C=C/C(=O)c2ccc(OC)c(OC)c2)cc1	%	97.2
COc1ccc(/C=C/C(=O)c2cccc(O)c2)cc1OC	%	101
COc1ccc(CCCc2ccc(OC)cc2O)cc1	%	98.9
COc1ccc(CCC(=O)c2cccc(O)c2)cc1OC	%	101
COc1ccc(CCC(=O)c2ccc(OC)c(OC)c2)cc1	%	99.1
COc1ccc(C(=O)CCc2cccc(OC)c2OC)c(O)c1	%	96.6
COc1ccc(/C=C/C(=O)c2cccc(O)c2)cc1	%	99
COc1cc(C(=O)CCc2ccc3c(c2)OCO3)ccc1O	%	95.3
COc1ccc(/C=C/C(=O)c2cccc(O)c2)c(OC)c1	%	97.7
COc1ccc(/C=C/C(=O)c2ccc(OC)cc2O)cc1	%	93.3
COc1ccc(/C=C/C(=O)c2ccc(O)c(OC)c2)cc1	%	96.2
COc1ccc(OC)c(CCC(=O)c2cccc(O)c2)c1	%	98.6
COc1ccc(CCCc2cccc(O)c2)cc1	%	99.9
COc1ccc(C(=O)CCc2cc(OC)ccc2OC)c(O)c1	%	96.4
COc1ccc(CCCc2ccc(OC)c(OC)c2)cc1	%	100
COc1ccc(C(=O)CCc2ccc3c(c2)OCO3)c(OC)c1	%	87.4
COc1ccc(CCC(=O)c2cccc(O)c2)cc1	%	97.5
COc1ccc(CCCc2cccc(OC)c2OC)c(O)c1	%	99.1
COc1ccc(CCCc2ccc(OC)c(OC)c2)cc1OC	%	99
COc1ccc(CCC(=O)c2ccc(OC)c(OC)c2)cc1O	%	95.6
O=C(CCc1ccc2c(c1)OCO2)c1ccc(O)cc1	%	95.1
COc1ccc(C(=O)/C=C/c2ccc3c(c2)OCO3)c(OC)c1	%	92.7
COc1ccc(C(=O)/C=C/c2ccc3c(c2)OCO3)c(O)c1	%	96.4
COc1cccc(CCCc2cccc(O)c2)c1OC	%	97.1
COc1cccc(CCC(=O)c2cccc(O)c2)c1OC	%	96.4
COc1cc(C(=O)/C=C/c2cccc(OC)c2OC)ccc1O	%	97.5
COc1ccc(CCC(=O)c2ccc(OC)cc2O)cc1	%	95.1
COc1cc(C(=O)/C=C/c2ccc3c(c2)OCO3)ccc1O	%	100
COc1ccc(CCCc2ccc3c(c2)OCO3)c(OC)c1	%	99.1
COc1cc(CCCc2cccc(OC)c2OC)ccc1O	%	99.6
COc1ccc(C(=O)CCc2ccc3c(c2)OCO3)c(O)c1	%	99.8
Oc1ccc(CCCc2ccc3c(c2)OCO3)cc1	%	99.2
COc1ccc(CCCc2ccc(OC)c(OC)c2OC)c(O)c1	%	96.3
COc1ccc(CCCc2ccc(OC)c(OC)c2)cc1O	%	98
COc1cc(/C=C/C(=O)c2cccc(O)c2)ccc1O	%	96.9
COc1ccc(CCCc2ccc(OC)c(OC)c2)c(O)c1	%	97.9
COc1ccc(OC)c(/C=C/C(=O)c2cccc(O)c2)c1	%	99
COc1ccc(C(=O)/C=C/c2ccc(OC)c(OC)c2OC)c(O)c1	%	98.5
COc1cc(CCCc2ccc3c(c2)OCO3)ccc1O	%	98.5
COc1cc(CCCc2cccc(O)c2)ccc1O	%	100
COc1ccc(/C=C/C(=O)c2ccc(OC)c(OC)c2)cc1OC	%	94
COc1ccc(CCC(=O)c2ccc(OC)c(OC)c2)cc1OC	%	99.6
O=C(/C=C/c1ccc2c(c1)OCO2)c1ccc(O)cc1	%	99.2
COc1cc(C(=O)CCc2cccc(OC)c2OC)ccc1O	%	94.1
COc1ccc(CCCc2cc(OC)ccc2OC)c(O)c1	%	102
COc1cccc(/C=C/C(=O)c2cccc(O)c2)c1OC	%	99.6
COc1ccc(C(=O)/C=C/c2ccc(OC)c(OC)c2)c(O)c1	%	99.7
COc1ccc(C(=O)/C=C/c2cccc(OC)c2OC)c(O)c1	%	94.2
COc1ccc(C(=O)CCc2ccc(OC)c(OC)c2OC)c(O)c1	%	101
COc1ccc(C(=O)/C=C/c2cc(OC)ccc2OC)c(O)c1	%	95.4
